# Organism: Rattus norvegicus
# protocolSummary: Open TG-GATES - Regimen: Daily Repeat
# Assay type: toxicity, organism-based, Sprague-Dawley
# Parameters: regimen Daily Repeat, gender Male, age 6 weeks
# experimentalParameters: in vivo, po, 300 mg/kg, […], tissue Plasma, route gavage, dose level Middle, time 7 day

structureAsSmiles	TG, mg/dL
CCOc1ccc(NC(C)=O)cc1	149
Cc1nnc2n1-c1ccc(Cl)cc1C(c1ccccc1Cl)=NC2	103.4
CNC(=C[N+](=O)[O-])NCCSCc1ccc(CN(C)C)o1	83
COC(=O)C1=C(C)NC(C)=C(C(=O)OC)C1c1ccccc1[N+](=O)[O-]	102
CN/C(=N/CCSCc1nc[nH]c1C)NC#N	120
O=C(OC[C@H]1O[C@@H](OC(=O)c2cc(O)c(O)c(OC(=O)c3cc(O)c(O)c(O)c3)c2)[C@H](OC(=O)c2cc(O)c(O)c(OC(=O)c3cc(O)c(O)c(O)c3)c2)[C@@H](OC(=O)c2cc(O)c(O)c(OC(=O)c3cc(O)c(O)c(O)c3)c2)[C@@H]1OC(=O)c1cc(O)c(O)c(OC(=O)c2cc(O)c(O)c(O)c2)c1)c1cc(O)c(O)c(OC(=O)c2cc(O)c(O)c(O)c2)c1	119.6

* * *

# Species: Rattus norvegicus
# protocolSummary: Open TG-GATES - Regimen: Daily Repeat
# Format: toxicity, organism-based, Sprague-Dawley
# Set-up: regimen Daily Repeat, gender Male, age 6 weeks
# experimentalParameters: in vivo, po, 0 mg/kg, 72 h, tissue Plasma, route gavage, dose level Control, time 3 day
Here the recorded K is given for each entry.
measurementType: K (meq/L)

> print(dat)
                                   compound  measurementtype  unitstring  readoutvalue
1  CNC(=C[N+](=O)[O-])NCCSCc1ccc(CN(C)C)o1 [RANITIDINE]                K       meq/L           4.2
2  NC1=NC(=O)C(c2ccccc2)O1 (stereo unspecified) [PEMOLINE]                K       meq/L           3.9
3                 Brc1ccccc1 [BROMOBENZENE]                K       meq/L             4
4  Cc1nnc2n1-c1ccc(Cl)cc1C(c1ccccc1Cl)=NC2 [TRIAZOLAM]                K       meq/L             4
5  CN(C)CCC(c1ccc(Cl)cc1)c1ccccn1 (stereo unspecified) [CHLORPHENIRAMINE]                K       meq/L           4.5
6         CCOc1ccc(NC(C)=O)cc1 [PHENACETIN]                K       meq/L           4.2

* * *

# Species on record: Rattus norvegicus
# protocolSummary: Open TG-GATES - Regimen: Single
# Assay type: toxicity, organism-based, Sprague-Dawley
# Set-up: regimen Single, gender Male, age 6 weeks
# experimentalParameters: in vivo, po, 1000 mg/kg, 3 h, tissue Blood, route gavage, dose level High
Here the recorded RBC is given for each entry.
measurementType: RBC

> print(dat)
                                   compound    readoutvalue
1  COC(=O)C1=C(C)NC(C)=C(C(=O)OC)C1c1ccccc1[N+](=O)[O-] [NIFEDIPINE]    626 x10_4/ul
2  CN/C(=N/CCSCc1nc[nH]c1C)NC#N [CIMETIDINE]    582 x10_4/ul
3  CNC(=C[N+](=O)[O-])NCCSCc1ccc(CN(C)C)o1 [RANITIDINE]  585.2 x10_4/ul
